System: Escherichia coli TOP10
Assay: shrunken log2 fold change of peptide-encoding DNA abundance (4.5 h post-induction vs induction); higher = less antimicrobial activity (less host growth inhibition)
Details: time post-induction: 4.5 h; library: site-saturation at positions 5, 18, 19, 20
Label yes (1) when shrunken log2 fold change is at or above -0.02; otherwise label no (0).

Example entries and their recorded answers appear below.
RRIRMRPPRLPRPRPRPLFYPRP ... no (0)
RRIRERPPRLPRPRPRPPPCPRP ... yes (1)

INPUT: Textbook exercise: given the entry RRIRPRPPRLPRPRPRPCWTPRP , state whether its shrunken log2 fold change is greater than or equal to -0.02.
OUTPUT: no (0)

INPUT: Textbook exercise: given the entry RRIRKRPPRLPRPRPRPHYDPRP , state whether its shrunken log2 fold change is greater than or equal to -0.02.
OUTPUT: yes (1)

INPUT: Textbook exercise: given the entry RRIRARPPRLPRPRPRPAKEPRP , state whether its shrunken log2 fold change is greater than or equal to -0.02.
OUTPUT: yes (1)

INPUT: Textbook exercise: given the entry RRIRRRPPRLPRPRPRPVKQPRP , state whether its shrunken log2 fold change is greater than or equal to -0.02.
OUTPUT: yes (1)

INPUT: Textbook exercise: given the entry RRIRTRPPRLPRPRPRPTDRPRP , state whether its shrunken log2 fold change is greater than or equal to -0.02.
OUTPUT: no (0)

INPUT: Textbook exercise: given the entry RRIRQRPPRLPRPRPRPAAPPRP , state whether its shrunken log2 fold change is greater than or equal to -0.02.
OUTPUT: yes (1)

INPUT: Textbook exercise: given the entry RRIRDRPPRLPRPRPRPDCQPRP , state whether its shrunken log2 fold change is greater than or equal to -0.02.
OUTPUT: yes (1)

---

System: Escherichia coli TOP10
Assay: shrunken log2 fold change of peptide-encoding DNA abundance (4.5 h post-induction vs induction); higher = less antimicrobial activity (less host growth inhibition)
Conditions: time post-induction: 4.5 h; library: site-saturation at positions 5, 18, 19, 20
The reader will find reported shrunken log2 fold change values listed item by item below.

Below, 5 sequences whose answers are already recorded.
RRIRNRPPRLPRPRPRPTGFPRP ... -0.0139
RRIRERPPRLPRPRPRPEYFPRP ... -0.0105
RRIRYRPPRLPRPRPRPFRQPRP ... 0.0775
RRIRLRPPRLPRPRPRPANEPRP ... 0.0458
RRIRGRPPRLPRPRPRPFGSPRP ... 0.081

Let's switch to this sequence now.
INPUT: Recorded shrunken log2 fold change for RRIRLRPPRLPRPRPRPVAHPRP , please?
OUTPUT: -0.454

---

System: Escherichia coli TOP10
Experiment: shrunken log2 fold change of peptide-encoding DNA abundance (4.5 h post-induction vs induction); higher = less antimicrobial activity (less host growth inhibition)
Details: time post-induction: 4.5 h; library: site-saturation at positions 5, 18, 19, 20
Label 1 when shrunken log2 fold change is at or above 0.03; otherwise label -1.

RRIRYRPPRLPRPRPRPYIGPRP ... -1
RRIRTRPPRLPRPRPRPFKRPRP ... 1
RRIRMRPPRLPRPRPRPEIDPRP ... 1

INPUT: Textbook exercise: given the entry RRIRPRPPRLPRPRPRPHSVPRP , state whether its shrunken log2 fold change is greater than or equal to 0.03.
OUTPUT: -1

INPUT: Textbook exercise: given the entry RRIRHRPPRLPRPRPRPYEPPRP , state whether its shrunken log2 fold change is greater than or equal to 0.03.
OUTPUT: -1

INPUT: Textbook exercise: given the entry RRIRWRPPRLPRPRPRPCSDPRP , state whether its shrunken log2 fold change is greater than or equal to 0.03.
OUTPUT: 1

INPUT: Textbook exercise: given the entry RRIRIRPPRLPRPRPRPIYMPRP , state whether its shrunken log2 fold change is greater than or equal to 0.03.
OUTPUT: -1

INPUT: Textbook exercise: given the entry RRIRKRPPRLPRPRPRPAVYPRP , state whether its shrunken log2 fold change is greater than or equal to 0.03.
OUTPUT: -1

INPUT: Textbook exercise: given the entry RRIRMRPPRLPRPRPRPSHCPRP , state whether its shrunken log2 fold change is greater than or equal to 0.03.
OUTPUT: -1

---

The reader will find reported shrunken log2 fold change values listed item by item below.
Tested on: Escherichia coli TOP10
Assay: shrunken log2 fold change of peptide-encoding DNA abundance (4.5 h post-induction vs induction); higher = less antimicrobial activity (less host growth inhibition)
Conditions: time post-induction: 4.5 h; library: site-saturation at positions 5, 18, 19, 20
I'd appreciate a reply containing only the number, no unit.

Below, 5 sequences whose answers are already recorded.
RRIRQRPPRLPRPRPRPTDAPRP ... 0.0862
RRIRCRPPRLPRPRPRPVFFPRP ... -0.0521
RRIRMRPPRLPRPRPRPIPLPRP ... 0.00552
RRIRQRPPRLPRPRPRPSDNPRP ... -0.394
RRIRFRPPRLPRPRPRPKSGPRP ... 0.0565

INPUT: Recorded shrunken log2 fold change for RRIRCRPPRLPRPRPRPWWTPRP , please?
OUTPUT: -0.383

INPUT: Recorded shrunken log2 fold change for RRIRHRPPRLPRPRPRPGIDPRP , please?
OUTPUT: -0.0302

INPUT: Recorded shrunken log2 fold change for RRIRFRPPRLPRPRPRPAVDPRP , please?
OUTPUT: 0.43

INPUT: Recorded shrunken log2 fold change for RRIRSRPPRLPRPRPRPTSQPRP , please?
OUTPUT: 0.0259

INPUT: Recorded shrunken log2 fold change for RRIRIRPPRLPRPRPRPHARPRP , please?
OUTPUT: 3.76

---

System: Escherichia coli TOP10
Assay: shrunken log2 fold change of peptide-encoding DNA abundance (4.5 h post-induction vs induction); higher = less antimicrobial activity (less host growth inhibition)
Conditions: time post-induction: 4.5 h; library: site-saturation at positions 5, 18, 19, 20
The reader will find reported shrunken log2 fold change values listed item by item below.
I'd appreciate a reply containing only the number, no unit.

Below, 2 sequences whose answers are already recorded.
RRIRRRPPRLPRPRPRPWDVPRP ... -0.149
RRIRRRPPRLPRPRPRPAKQPRP ... 0.136

INPUT: Recorded shrunken log2 fold change for RRIRMRPPRLPRPRPRPDYVPRP , please?
OUTPUT: -0.183

INPUT: Recorded shrunken log2 fold change for RRIRVRPPRLPRPRPRPRSNPRP , please?
OUTPUT: 0.125

INPUT: Recorded shrunken log2 fold change for RRIRNRPPRLPRPRPRPTYIPRP , please?
OUTPUT: -0.603

INPUT: Recorded shrunken log2 fold change for RRIRWRPPRLPRPRPRPDRNPRP , please?
OUTPUT: 0.0394

INPUT: Recorded shrunken log2 fold change for RRIRHRPPRLPRPRPRPACHPRP , please?
OUTPUT: -0.2

INPUT: Recorded shrunken log2 fold change for RRIRCRPPRLPRPRPRPVAWPRP , please?
OUTPUT: 0.163

INPUT: Recorded shrunken log2 fold change for RRIRCRPPRLPRPRPRPTHQPRP , please?
OUTPUT: 0.476

INPUT: Recorded shrunken log2 fold change for RRIRGRPPRLPRPRPRPEPNPRP , please?
OUTPUT: 1.42

INPUT: Recorded shrunken log2 fold change for RRIRDRPPRLPRPRPRPIFAPRP , please?
OUTPUT: 0.142

INPUT: Recorded shrunken log2 fold change for RRIRKRPPRLPRPRPRPFDSPRP , please?
OUTPUT: -0.0504

INPUT: Recorded shrunken log2 fold change for RRIRCRPPRLPRPRPRPMPSPRP , please?
OUTPUT: 2.8

INPUT: Recorded shrunken log2 fold change for RRIRDRPPRLPRPRPRPNKDPRP , please?
OUTPUT: -0.951

INPUT: Recorded shrunken log2 fold change for RRIRIRPPRLPRPRPRPNWSPRP , please?
OUTPUT: 0.0776

INPUT: Recorded shrunken log2 fold change for RRIRLRPPRLPRPRPRPDAEPRP , please?
OUTPUT: 0.326

INPUT: Recorded shrunken log2 fold change for RRIRNRPPRLPRPRPRPCWNPRP , please?
OUTPUT: -0.429

INPUT: Recorded shrunken log2 fold change for RRIRQRPPRLPRPRPRPNYHPRP , please?
OUTPUT: -0.676

---

The reader will find reported shrunken log2 fold change values listed item by item below.
System: Escherichia coli TOP10;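 also: peptides expressed intracellularly from a pBAD plasmid library in pooled LB shake-flask culture, induced with 0.3% L-arabinose, DNA abundance read by NGS, three biological replicates, DESeq2 with apeglm shrinkage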
Experiment: shrunken log2 fold change of peptide-encoding DNA abundance (4.5 h post-induction vs induction); higher = less antimicrobial activity (less host growth inhibition)
Conditions: time post-induction: 4.5 h; library: site-saturation at positions 5, 18, 19, 20

Below, 6 sequences whose answers are already recorded.
RRIRWRPPRLPRPRPRPAENPRP ... 0.568
RRIRWRPPRLPRPRPRPLWGPRP ... 0.08
RRIRKRPPRLPRPRPRPKFKPRP ... 0.241
RRIRQRPPRLPRPRPRPQPIPRP ... 0.136
RRIRMRPPRLPRPRPRPPFCPRP ... 0.0505
RRIRIRPPRLPRPRPRPRYKPRP ... -0.593

INPUT: Recorded shrunken log2 fold change for RRIRLRPPRLPRPRPRPGQYPRP , please?
OUTPUT: -0.0693

INPUT: Recorded shrunken log2 fold change for RRIRRRPPRLPRPRPRPLISPRP , please?
OUTPUT: -0.111

INPUT: Recorded shrunken log2 fold change for RRIRERPPRLPRPRPRPIFGPRP , please?
OUTPUT: -0.112

INPUT: Recorded shrunken log2 fold change for RRIRQRPPRLPRPRPRPGRWPRP , please?
OUTPUT: 0.446

INPUT: Recorded shrunken log2 fold change for RRIRVRPPRLPRPRPRPMIRPRP , please?
OUTPUT: -0.147
